Origin of measurements: patent US20210128561A1

- TARGET_ENTITY: human wildtype MrgX2 (Homo sapiens, UniProt Q96LB1)
- Construct: expressed in transfected cells; host or cells: LN229 cells
- Sequence (Q96LB1 whole entry): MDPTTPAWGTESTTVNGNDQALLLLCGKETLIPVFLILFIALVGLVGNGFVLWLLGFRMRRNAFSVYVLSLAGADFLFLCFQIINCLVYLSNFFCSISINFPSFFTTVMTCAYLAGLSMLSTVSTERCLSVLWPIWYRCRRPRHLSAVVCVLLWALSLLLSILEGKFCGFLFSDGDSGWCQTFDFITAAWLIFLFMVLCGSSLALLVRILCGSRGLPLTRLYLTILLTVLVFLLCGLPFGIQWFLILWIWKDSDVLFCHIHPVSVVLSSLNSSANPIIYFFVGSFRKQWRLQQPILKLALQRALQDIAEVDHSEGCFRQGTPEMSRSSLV
- TEST_SUMMARY: calcium assay (LN229 cells recombinantly expressing human wildtype MrgX2)
- Type: cell-based
- TEST_PARAMETERS: test concentration not given
Use Criterion met when the recorded % inhibition ± SEM is no lower than 10%; use Criterion not met when it is lower.

q: Check the entry CCc1c(O)[nH]c2nc3ccccc3n2c1=O [A-24] : does % inhibition ± SEM equal or exceed 10%?
a: Criterion not met

q: Check the entry CCc1c(C)n(C)c2nc3ccccc3n2c1=O [A-30] : does % inhibition ± SEM equal or exceed 10%?
a: Criterion met

q: Check the entry CCOC(=O)CCc1c(C)[nH]c2nc3ccccc3n2c1=O [A-15] : does % inhibition ± SEM equal or exceed 10%?
a: Criterion not met

q: Check the entry Cc1[nH]c2nc3ccccc3n2c(=O)c1CCO [B-34] : does % inhibition ± SEM equal or exceed 10%?
a: Criterion not met

q: Check the entry CCCc1cc(=O)n2c(nc3ccccc32)[nH]1 [A-19] : does % inhibition ± SEM equal or exceed 10%?
a: Criterion met
